All figures here come from a melting point compilation (Tetko et al.; mined from patent text by program, amines drawn as free bases though some values may be those of a salt).

Measurement Name: melting point

Value of measured melting point for the entry "COc1cc(-c2nc(-c3ccc(N(C)C)cc3)c(C)s2)cc(OC)c1O" : 230 to 233 °C

The compound identified as "CC#COc1cccc2oc3ccccc3c(=O)c12" registered its melting point at 168 to 169 °C

According to the records, this compound "C=CCON=C(C(=O)O)c1nc(NC=O)sc1Cl" displays melting point of 166 to 167 °C

get_value(item= "CSc1nc(O)nn1-c1ccccc1" , readout=melting point) returns 176 to 177 °C

So, "CCCOc1ncc2c(=O)[nH]c(-c3ccccc3OCCC)nc2n1" ? Its melting point was 157 to 158 °C

"CCOC(=O)c1sc(Cl)nc1-c1ccccc1" has a reported melting point of 56 to 57 °C

Documented melting point of "Nc1ccc2cnn(-c3ccnc(N[C@H]4CC[C@H](O)CC4)n3)c2c1" : 236 to 238 °C

The recorded melting point for "COc1cc(C=CC(=O)c2ccccc2F)cc(OC)c1" is 71.6 to 72.5 °C

The recorded melting point for CCCCNC(=S)NC(Cc1ccccc1)C(=O)Nc1c(C(C)C)cccc1C(C)C (configuration not stated) is 214 to 215 °C

Documented melting point of "Cc1cc2ccccc2n2c(S)nnc12" : 268 °C

Per the record, CSc1ncnn1C[C@]1(c2ccc(F)cc2)O[C@@H]1c1cccc(Cl)c1F (relative stereo) has melting point of 88 °C

Value of measured melting point for the entry "CC(=O)N1CCc2cc([N+](=O)[O-])cc(C#N)c21" : 245 to 255 °C

Notebook: "C[C@@H](n1cnn(-c2ccc(OCC(F)(F)F)cc2)c1=O)[C@@]1(c2ccc(F)cc2F)CO1" , melting point read as 118 to 119 °C

Short answer for CNC1(c2ccccc2Cl)C(=O)N(S(=O)(=O)c2ccc(OC)cc2OC)c2c(F)cc(Cl)cc21 (configuration not stated) : melting point was 183 to 185 °C

The reported melting point of the compound "Cc1cc(Br)cc(C#N)c1" was 85 to 86 °C

Summary for this compound, "c1cc(-c2cnc(-c3ccc(-c4cnco4)o3)o2)nc(-c2cnc(-c3ccc(-c4cnco4)o3)o2)c1" : melting point is > 250 °C

melting point recorded for this compound, CC(c1ccc(F)cc1)n1ncc(-c2ccc(S(C)(=O)=O)cc2)c(-c2ccc(F)cc2)c1=O (configuration not stated) , is 162 to 164 °C

Record summary for "CSc1ccc2nc(NN)sc2c1" : reported melting point = 173 to 176 °C

get_value(item= CC1Nc2ccc(-c3ccc(C#N)n3C)cc2C(C)(C)O1 (configuration not stated) , readout=melting point) returns 195 to 196 °C

Query "CC(C)Oc1ccc(Cc2cc3cccc(-c4cccc(C(=O)NCCO)c4)c3s2)cn1" yields melting point of 106 to 107 °C

Form field melting point, entry "O=c1c2ccc(Cl)cc2[nH]c2c(=O)n(-c3ccc(Cl)cc3)nc(O)c12" : > 400 °C

Given item "Cn1c(CO)cc2ccccc21" , the value recorded as its melting point is 92.8 °C

Just so you know, measured melting point for CCCCCCCCCCCCc1ccccc1C(SC(CC(=O)O)C(=O)O)C(=O)O (configuration not stated) came out at 85 to 89 °C

Reported melting point ( "CCOC(=O)N1CCc2nnc(NN)cc2C1" ) = 145 to 147 °C

So, "CN1CCCC1=NC(=O)Nc1cc(Cl)cc(Cl)c1" ? Its melting point was 157 to 159 °C

The recorded melting point for entry "CCOc1cc2cc3c(Nc4cc(OC)c(Cl)cc4C)c(C#N)cnc3cc2cc1OCCN(CC(N)=O)CC(N)=O" equals 168 to 170 °C

The compound listed as "COc1cccc(Oc2nccc(-c3c(-c4ccc(F)cc4)ncn3C3CCNCC3)n2)c1" shows melting point equal to 117 to 118 °C
